Just for reference, the NTF2 design screens of Basanta et al. (2020) is where these values come from.

Protocol Notes: protease stability score; higher = more stable; yeast display proteolysis, trypsin and chymotrypsin;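 also: relative to predicted unfolded state with 0 unfolded-like and 1 meaning tenfold more protease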
Please note: yes applies when protease stability score is 2 or greater, and no applies otherwise.

Biopolymer Sequence | Class Name
DEEEEISRRIVKLLIELFETGDEEKWKELADPDARVDIDGVDSVGRKHAIHLLHEWKEQLGFKHHRIHSIHVYGEFIDVDGLLIVNGRKIRIHFHFIVVNGRLKEQRLHIE | no
SDELEEALKWLEELMRLTLTGNWDRLDELVDPNAKEVINGKELHGMHFFRRVLHEIRFTHIDVQDIRLQGNYVEVDLRVEGNIDGRHVDLHTEVILLKVNGRWLHKMRILR | no
DDEERDLKRAYELWVHNMLTGNWRMLNYLADPNTKIEFENHKSHGRESLHELLKRLGVDHMHIELEDMHFVGDKIILHTREEHRVGDKEIRTEVHIDARKINGRWRLQSVHFR | no
SEEEEILDKLVKHFIHAFRTGDEDRLNELLDPDAKLVIEYGDKRLEHHGRENVLRAWVELIERIKGVRLEWKEIRPQGDFVESRTQLIVNGREVETEVEIIMFNGRFREFTVRIR | yes
DEDEEALDRFLEEWRRYFETGNWEMISNLVDPHARLEQGDKRFHGREEVAKYIHHLVRHMRINDFDIEHRDVQGDKIRIHLRLNGEIDGRRTEFEIHMIYIKVNGRWVVKSMVVN | no
DKDEEDLRHVLHLLSRAFMTGDEDELTKLMDPDVRIYYGDKRLHGREEVTRWIREIRAWVHDSKIRHIRRQGEKIILHGEMDMIFDQGDKEVRTRTEITIHTTKINGRWLLNELELR | yes
